B1: library; numbered along this chain (parent)
chain: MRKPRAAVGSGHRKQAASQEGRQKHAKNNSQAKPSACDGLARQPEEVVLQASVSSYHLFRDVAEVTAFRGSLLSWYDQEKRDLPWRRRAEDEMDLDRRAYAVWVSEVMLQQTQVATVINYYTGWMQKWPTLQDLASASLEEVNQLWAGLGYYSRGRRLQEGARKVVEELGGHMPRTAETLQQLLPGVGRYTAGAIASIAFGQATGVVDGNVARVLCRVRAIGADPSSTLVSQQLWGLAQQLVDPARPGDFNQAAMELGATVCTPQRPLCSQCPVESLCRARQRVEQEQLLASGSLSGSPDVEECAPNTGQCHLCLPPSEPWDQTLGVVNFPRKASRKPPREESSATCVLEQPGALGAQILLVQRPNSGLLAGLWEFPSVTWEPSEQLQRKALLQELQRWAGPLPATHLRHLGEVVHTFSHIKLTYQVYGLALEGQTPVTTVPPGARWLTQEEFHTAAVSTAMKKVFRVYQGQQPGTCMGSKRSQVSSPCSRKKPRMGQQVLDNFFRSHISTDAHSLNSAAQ

- Variants of: B1
- Test: 8OG:A repair function score (normalized; synonymous = 0, nonsense = -1) (normalized log-likelihood score); higher = more repair activity (WT-like);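 further: cells sorted at 72 h after reporter transfection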
- Assay conditions: with 8OG:A DNA repair reporter (GFP) in HEK-293 MUTYH KO cells
Assign true (1) whenever 8OG:A repair function score does not fall below -0.4; assign false (0) whenever it does.

The following variants have reported results that may help.
sequence_change=K422F group_label="false (0)"
sequence_change=L241I group_label="true (1)"
sequence_change=G155F group_label="false (0)"
sequence_change=L184Y group_label="false (0)"
sequence_change=E92A group_label="true (1)"

# input for lookup
Is reported 8OG:A repair function score greater than or equal to -0.4 here: S318I
true (1)

Cited source: the supplement of paper PMC11908140
